# System: HS 578T breast
# Procedure Text: NCI-60 one-dose screen, 48 h (100 = growth as untreated, 0 = no growth, -100 = all killed)
# Assay Conditions: 10 µM
The panel holds about 83,000 compounds, 20% with a hit somewhere; the sample as a whole holds those more often.
Recorded measurements of growth, one per entry
Measurement Name: growth (%)

Smiles Text	Measurement Name	Test Result
CC(C)OP(=O)(CCC(=O)c1c[nH]c2ccccc12)OC(C)C	growth	86.6
COC(=O)CCCNc1c(-c2c(O)c(O)cc3c(O)c(-c4c(C)cc5c(-c6nc7ccccn7c6NCCCC(=O)OC)c(O)c(O)cc5c4O)c(C)cc23)nc2ccccn12	growth	34.5
COc1cnc2c(c1)C(=O)c1c-2n(CCCn2ccnc2)c(=O)c2cc(Cl)ccc12	growth	75.1
Cc1cc2c3c(cccc3c1)C(=O)c1ccccc1-2	growth	99.6
[2H]C1([2H])[C@H](C)O[C@H](C)C([2H])([2H])N1c1ccc(NC(=O)c2cccc(-c3ccc(OC(F)(F)F)cc3)c2C)cn1	growth	88.2
COc1cc2cc(NCc3ccc(F)cc3)nc(C)c2cc1OC	growth	75.8
Fc1ccc(NCc2cn(-c3ccccc3)nc2-c2ccc(OCc3ccccc3)cc2)cc1Cl	growth	104
Oc1ccc(C(c2ccc(O)cc2)C(Cl)(Cl)Cl)cc1	growth	88.3
O=C(Cn1ccnc1)Nc1ccc(-c2nc3ccccc3s2)cc1	growth	86.9

----------
The following molecules are shown together with reported growth values.
# Tested on: M14 melanoma
# Procedure Text: NCI-60 one-dose screen, 48 h (100 = growth as untreated, 0 = no growth, -100 = all killed)
# Assay Conditions: 10 µM unless noted
# Experimental: Growth inhibition of the M14 human tumor cell line is measured as a screen for anti-cancer activity. Cells are grown in 96 well plates and exposed to the test compound for 48 hours. Compounds are tested at a single concentration, which is 10^-5 M for most compounds. The reported endpoint is percent growth (GI% or GIPRCNT), where numbers from 0 - 100% represent growth inhibition, and numbers from -100% - 0 represent cell death. For example, a value of 40 represents 60% growth inhibition. […]
About 83,000 compounds went through this panel and 20% of them were active in at least one assay; those are over-represented in the sample as a whole.

Smiles Text	Unit Abbrev	growth
Cc1cc(-c2cc(OC(=O)c3ccccc3)ccc2Cl)cc2nnc(Nc3ccc(OCCN4CCCC4)cc3)nc12	%	-8.09
Cc1cc(Nc2cc(N3CCN(C)CC3)nc(/C=C/c3ccccc3)n2)n[nH]1	%	-76.6
COc1ccc(OC)c(NC2=C(SCCc3ccccc3)C(=O)c3ccccc3C2=O)c1	%	83.3
Cc1csc(-c2nnc(Nc3ccc(Oc4ncccc4-c4ccnc(N)n4)cc3)c3ccccc23)c1	%	15.4
N#Cc1c(NC(=O)c2cccs2)[n+]([O-])c2ccc(F)cc2[n+]1[O-]	%	101
CNC(=O)c1nn(C)c2c1C(C)(C)Cc1cnc(Nc3ccc(N4CCN(C)CC4)cc3)nc1-2	%	12.5
Nc1cc(C(F)(F)F)c(-c2cc(N3CCOCC3)nc(N3CCOCC3)n2)cn1	%	-62.1
CCOc1ccc(N=C(C)Nc2ccc(OCC)cc2)cc1	%	101
Cc1ccc(N=C2CSc3nnc(-c4csc5c4CCCC5)n3N2)cc1	%	5.9
C=CC(=O)Nc1cc2c(Nc3ccc(F)c(Cl)c3)ncnc2cc1OCCCN1CCOCC1	%	-62.3

Origin of the recorded values: PubChem BioAssay (NCI)
